Biological target: T1, Dimeric fibrinogen-like domain of mouse (Mus musculus) Ang-2 conjugated to human IgG1 (mouse (Mus musculus))
T1 construct: also called Dimeric Mouse Ang-2FD; Mouse Ang-2FD-hFc
T1 sequence (chain, as listed by the source limits assumed): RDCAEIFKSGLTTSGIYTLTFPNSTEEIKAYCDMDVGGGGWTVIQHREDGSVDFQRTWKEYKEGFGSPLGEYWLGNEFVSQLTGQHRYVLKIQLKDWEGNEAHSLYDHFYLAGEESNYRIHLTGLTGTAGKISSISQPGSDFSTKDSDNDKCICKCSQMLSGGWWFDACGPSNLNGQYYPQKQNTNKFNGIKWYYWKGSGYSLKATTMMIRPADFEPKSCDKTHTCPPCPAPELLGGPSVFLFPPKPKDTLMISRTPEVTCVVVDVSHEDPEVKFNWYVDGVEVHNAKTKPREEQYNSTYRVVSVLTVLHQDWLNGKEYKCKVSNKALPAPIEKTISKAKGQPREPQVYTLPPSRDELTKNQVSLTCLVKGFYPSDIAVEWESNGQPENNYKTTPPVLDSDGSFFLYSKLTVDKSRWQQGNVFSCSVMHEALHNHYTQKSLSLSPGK
Assay: SPR, hIgG1 antibody captured, room temp
metric: T1/2 (h)
Output spec: scalar in h, unitless text.

Return value of T1/2 for input H1H728N (antibody, V domains shown) VH: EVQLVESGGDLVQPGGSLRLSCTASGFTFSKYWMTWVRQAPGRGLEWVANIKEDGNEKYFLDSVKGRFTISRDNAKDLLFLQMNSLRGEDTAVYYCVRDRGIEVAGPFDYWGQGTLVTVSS VL: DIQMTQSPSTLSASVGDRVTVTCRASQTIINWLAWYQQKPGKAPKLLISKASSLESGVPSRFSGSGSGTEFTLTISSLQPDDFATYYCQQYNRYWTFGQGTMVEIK , no commentary.
0.333

// Input: H1H693P (antibody, V domains shown) VH: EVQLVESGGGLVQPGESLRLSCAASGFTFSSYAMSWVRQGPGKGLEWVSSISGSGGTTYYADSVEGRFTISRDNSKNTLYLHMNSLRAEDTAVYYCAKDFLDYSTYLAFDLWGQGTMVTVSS VL: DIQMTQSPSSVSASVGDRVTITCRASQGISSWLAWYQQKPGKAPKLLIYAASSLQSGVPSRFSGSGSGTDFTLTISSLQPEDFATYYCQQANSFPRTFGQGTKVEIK . Output its T1/2 only.
1.06

Specify reported T1/2 for the binder shown: H1H749N (antibody, V domains shown) VH: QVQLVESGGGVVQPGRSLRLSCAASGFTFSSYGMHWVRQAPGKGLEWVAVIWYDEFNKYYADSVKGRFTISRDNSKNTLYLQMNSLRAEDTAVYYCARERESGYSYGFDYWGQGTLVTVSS VL: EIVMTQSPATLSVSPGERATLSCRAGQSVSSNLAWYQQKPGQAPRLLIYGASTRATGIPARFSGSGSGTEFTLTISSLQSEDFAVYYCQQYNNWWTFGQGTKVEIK
1.6
